# MEASUREMENT NOTES: Pharmacokinetics in mouse plasma
# Type: in vivo, CD1 mice (Mus musculus)
# TEST SETTINGS: both sexes, CD1, mouse, plasma, iv; mice; 3 mg/kg (i.v.); read-out: Vz
OBSERVABLE: Vd (L/kg)

- STRUCTURE: "c1coc(CNc2ncnc3[nH]cnc23)c1"
  OBSERVABLE: "Vd"
  OBSERVED: 19

====

# MEASUREMENT NOTES: Pharmacokinetics and metabolites in rat plasma
# Assay type: in vivo, Sprague-Dawley rats (Rattus norvegicus)
# TEST SETTINGS: both sexes, Sprague-Dawley, rat, plasma, po, 30 mg/kg, rats; read-out: Oral bioavailability

- STRUCTURE: "c1coc(CNc2ncnc3[nH]cnc23)c1"
  bioavailability: "> 50%"

====

# MEASUREMENT TARGET: UniProtKB P0DTD1
# MEASUREMENT NOTES: SARS-CoV-2 RNA polymerase inhibition assay (pyrophosphate luminescence)
# Format: biochemical
OBSERVABLE: IC50 (nM)

- COMPOUND: "O=P(O)(O)OP(=O)(O)OP(=O)(O)OC[C@H]1O[C@@H](n2cnc3c(NCc4ccco4)ncnc32)[C@H](O)[C@@H]1O [801-TP, Kinetin ribose 5’-triphosphate]"
  OBSERVABLE: "IC50"
  UNIT LABEL: "nM"
  OBSERVED: 100

====

# MEASUREMENT NOTES: Pharmacokinetics in mouse plasma
# Type: in vivo, CD1 mice (Mus musculus)
# TEST SETTINGS: both sexes, CD1, mouse, plasma, iv; mice; 3 mg/kg (i.v.)

- STRUCTURE: "c1coc(CNc2ncnc3[nH]cnc23)c1"
  AUC(0-t), ng·h/mL: 55.5

====

# MEASUREMENT NOTES: Pharmacokinetics in mouse plasma
# Format: in vivo, CD1 mice (Mus musculus)
# TEST SETTINGS: both sexes, CD1, mouse, plasma, po; mice; 550 mg/kg (p.o.)

- MOLECULE: "c1coc(CNc2ncnc3[nH]cnc23)c1 [MB-905, N6-furfurylaminopurine]"
  AUC(0-t) (ng·h/mL): 4390

====

# MEASUREMENT NOTES: Pharmacokinetics and metabolites in rat plasma
# Format: in vivo, Sprague-Dawley rats (Rattus norvegicus)
# TEST SETTINGS: both sexes, Sprague-Dawley, rat, plasma, iv; rats; 1 mg/kg (i.v.)

- STRUCTURE: "c1coc(CNc2ncnc3[nH]cnc23)c1"
  AUC / ng·h/mL: 77.1

====

# MEASUREMENT NOTES: Pharmacokinetics in mouse plasma
# Assay type: in vivo, CD1 mice (Mus musculus)
# TEST SETTINGS: both sexes, CD1, mouse, plasma, iv; mice; 3 mg/kg (i.v.); read-out: Ke (converted)

- STRUCTURE: "c1coc(CNc2ncnc3[nH]cnc23)c1"
  k el (s⁻¹): 0.000858

====

# MEASUREMENT NOTES: Pharmacokinetics and metabolites in rat plasma
# Assay type: in vivo, Sprague-Dawley rats (Rattus norvegicus)
# TEST SETTINGS: both sexes, Sprague-Dawley, rat, plasma, po; rats; 30 mg/kg (p.o.); read-out: Ke (converted)
OBSERVABLE: k el (s⁻¹)

- STRUCTURE: "c1coc(CNc2ncnc3[nH]cnc23)c1"
  OBSERVABLE: "k el"
  OBSERVED: "5e-05"
